- study.target: Intercellular adhesion molecule (ICAM-1), Integrin alpha-L/beta-2 (Homo sapiens, UniProt P05107+P05362+P20701)
- Sequence (P20701 whole entry): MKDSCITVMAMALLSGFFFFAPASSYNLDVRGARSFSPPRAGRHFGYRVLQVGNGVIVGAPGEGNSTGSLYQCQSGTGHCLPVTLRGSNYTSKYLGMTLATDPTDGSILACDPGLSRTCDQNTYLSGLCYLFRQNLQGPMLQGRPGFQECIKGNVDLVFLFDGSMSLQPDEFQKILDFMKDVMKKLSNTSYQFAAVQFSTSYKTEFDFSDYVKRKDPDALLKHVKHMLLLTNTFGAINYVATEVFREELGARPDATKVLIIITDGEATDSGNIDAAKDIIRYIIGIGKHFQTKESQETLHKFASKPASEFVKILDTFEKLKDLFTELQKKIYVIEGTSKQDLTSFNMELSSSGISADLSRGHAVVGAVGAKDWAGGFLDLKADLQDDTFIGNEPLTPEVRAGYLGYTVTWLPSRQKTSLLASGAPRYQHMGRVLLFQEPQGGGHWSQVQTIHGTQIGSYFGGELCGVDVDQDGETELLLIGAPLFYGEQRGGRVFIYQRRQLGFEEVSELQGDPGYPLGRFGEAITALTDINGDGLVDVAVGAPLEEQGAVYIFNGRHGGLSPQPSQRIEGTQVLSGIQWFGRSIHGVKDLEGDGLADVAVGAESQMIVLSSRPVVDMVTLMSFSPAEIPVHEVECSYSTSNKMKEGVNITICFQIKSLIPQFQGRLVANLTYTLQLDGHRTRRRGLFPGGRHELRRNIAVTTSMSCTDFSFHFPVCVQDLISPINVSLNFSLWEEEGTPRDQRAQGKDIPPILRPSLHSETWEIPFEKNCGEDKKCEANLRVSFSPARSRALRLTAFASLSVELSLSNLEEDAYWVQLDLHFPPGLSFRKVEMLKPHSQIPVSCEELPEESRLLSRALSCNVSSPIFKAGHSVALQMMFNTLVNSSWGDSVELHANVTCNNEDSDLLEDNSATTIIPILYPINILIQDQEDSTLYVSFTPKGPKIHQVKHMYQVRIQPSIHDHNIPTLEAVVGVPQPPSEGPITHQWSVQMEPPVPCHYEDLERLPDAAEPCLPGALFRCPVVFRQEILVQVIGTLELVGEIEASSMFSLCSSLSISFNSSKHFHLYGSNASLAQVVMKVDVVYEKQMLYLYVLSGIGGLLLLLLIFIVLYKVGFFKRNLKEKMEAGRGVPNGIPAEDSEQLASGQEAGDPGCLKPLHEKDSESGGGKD
- Sequence (P05362 whole entry): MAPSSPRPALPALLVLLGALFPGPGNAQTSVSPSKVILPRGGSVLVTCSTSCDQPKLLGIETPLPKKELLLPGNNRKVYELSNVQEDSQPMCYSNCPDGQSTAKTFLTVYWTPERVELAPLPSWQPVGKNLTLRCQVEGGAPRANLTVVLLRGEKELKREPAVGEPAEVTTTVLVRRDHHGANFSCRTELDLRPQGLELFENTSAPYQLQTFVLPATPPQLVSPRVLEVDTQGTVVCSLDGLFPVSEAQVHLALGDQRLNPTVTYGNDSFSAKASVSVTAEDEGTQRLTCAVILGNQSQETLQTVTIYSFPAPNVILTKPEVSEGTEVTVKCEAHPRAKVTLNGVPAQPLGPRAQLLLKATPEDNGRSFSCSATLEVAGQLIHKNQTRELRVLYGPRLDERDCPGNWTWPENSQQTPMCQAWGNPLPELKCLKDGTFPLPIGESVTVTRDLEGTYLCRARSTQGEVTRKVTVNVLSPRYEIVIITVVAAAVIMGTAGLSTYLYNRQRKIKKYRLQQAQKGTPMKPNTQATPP
- Sequence (P05107 whole entry): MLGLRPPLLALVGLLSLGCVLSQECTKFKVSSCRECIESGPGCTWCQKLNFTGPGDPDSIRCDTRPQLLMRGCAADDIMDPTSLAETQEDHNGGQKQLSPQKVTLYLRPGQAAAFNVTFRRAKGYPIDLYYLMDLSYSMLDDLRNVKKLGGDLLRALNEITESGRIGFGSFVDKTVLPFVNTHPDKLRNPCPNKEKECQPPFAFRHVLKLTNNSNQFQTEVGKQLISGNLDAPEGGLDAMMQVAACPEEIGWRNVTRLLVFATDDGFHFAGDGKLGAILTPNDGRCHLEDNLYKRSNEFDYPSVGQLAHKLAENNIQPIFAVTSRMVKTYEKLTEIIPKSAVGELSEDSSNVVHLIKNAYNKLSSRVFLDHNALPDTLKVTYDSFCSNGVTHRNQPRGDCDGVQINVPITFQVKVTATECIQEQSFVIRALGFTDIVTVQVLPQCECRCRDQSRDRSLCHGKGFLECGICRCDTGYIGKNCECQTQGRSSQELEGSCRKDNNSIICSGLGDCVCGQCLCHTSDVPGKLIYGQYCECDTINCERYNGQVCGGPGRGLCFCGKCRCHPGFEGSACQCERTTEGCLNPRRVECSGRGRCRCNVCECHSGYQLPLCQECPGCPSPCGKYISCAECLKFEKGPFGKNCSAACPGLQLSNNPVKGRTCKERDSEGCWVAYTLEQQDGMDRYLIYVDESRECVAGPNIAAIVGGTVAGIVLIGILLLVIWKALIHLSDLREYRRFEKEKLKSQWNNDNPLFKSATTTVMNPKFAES
- assay.procedure: Concentration required to inhibit binding of ICAM-1 to LFA-1 (Leukocyte function-associated antigen-1), evaluated ELISA
parameter.measured: IC50 (µM)

entry.smiles: O=C(N[C@H](Cc1ccc2ccccc2c1)C(=O)O)c1ccccc1Br
parameter.measured: IC50
result.number: 243

entry.smiles: COc1ccc2[nH]cc(C[C@H](NC(=O)c3ccccc3Br)C(=O)O)c2c1
parameter.measured: IC50
result.number: 2.77

entry.smiles: O=C(N[C@@H](Cc1c[nH]c2ccccc12)C(=O)O)c1ccccc1Br
parameter.measured: IC50
result.number: 1.7

entry.smiles: O=C(N[C@@H](Cc1ccc(-c2ccccc2)cc1)C(=O)O)c1ccccc1Br
parameter.measured: IC50
result.number: 50.5

I: O=C(N[C@@H](Cc1c[nH]c2ccccc12)C(=O)NO)c1ccccc1Br
II: O=C(N[C@@H](CCc1ccccc1)C(=O)O)c1ccccc1Br
III: CC(C)[C@H](NC(=O)c1ccccc1Br)C(=O)O
IV: NC(=O)CC[C@H](NC(=O)c1ccccc1Br)C(=O)O
(Q) # sort list by recorded IC50, greatest to least Answer by listing the labels in the requested order.
(A) I, III, II, IV

----------
- study.target: Intercellular adhesion molecule (ICAM-1), Integrin alpha-L/beta-2 (Homo sapiens, UniProt P05107+P05362+P20701)
- assay.procedure: Concentration required to inhibit binding of ICAM-1 to LFA-1 (Leukocyte function-associated antigen-1), evaluated ELISA
- Type: protein-complex assay
parameter.measured: IC50 (µM)

// known answers, use as guide
entry.smiles: C[C@@H](O)[C@H](NC(=O)c1ccccc1Br)C(=O)O
parameter.measured: IC50
scale.unit: µM
result.number: 3.84
--
entry.smiles: O=C(N[C@@H](Cc1c[nH]c2ccc(Br)cc12)C(=O)O)c1ccccc1Br
parameter.measured: IC50
scale.unit: µM
result.number: 28.4
--
entry.smiles: N=C(N)NCCC[C@H](NC(=O)c1ccccc1Br)C(=O)O
parameter.measured: IC50
scale.unit: µM
result.number: 2.71
--
entry.smiles: CSCC[C@H](NC(=O)c1ccccc1Br)C(=O)O
parameter.measured: IC50
scale.unit: µM
result.number: 7.46
--
entry.smiles: O=C(N[C@@H](Cc1c[nH]c2cc(F)ccc12)C(=O)O)c1ccccc1Br
parameter.measured: IC50
scale.unit: µM
result.number: 7.64

1: N#Cc1ccc(C[C@H](NC(=O)c2ccccc2Br)C(=O)O)cc1
2: O=C(N[C@@H](Cc1ccccc1)C(=O)O)c1ccccc1Br
3: O=C(N[C@H](Cc1ccccc1)C(=O)O)c1ccccc1Br
(Q) Rank items: key IC50, increasing. Answer by listing the labels in the requested order.
(A) 2, 1, 3

----------
- study.target: Intercellular adhesion molecule (ICAM-1), Integrin alpha-L/beta-2 (Homo sapiens, UniProt P05107+P05362+P20701)
- assay.procedure: Concentration required to inhibit binding of ICAM-1 to LFA-1 (Leukocyte function-associated antigen-1), evaluated ELISA
parameter.measured: IC50 (µM)

entry.smiles: O=C(O)CNC(=O)c1ccccc1Br
result.number: 314

a: O=C(N[C@@H](Cc1cccc2ccccc12)C(=O)O)c1ccccc1Br
b: C[C@@H](NC(=O)c1ccccc1Br)C(=O)O
c: O=C(N[C@@H](Cc1cccs1)C(=O)O)c1ccccc1Br
(Q) Rank items: key IC50, increasing. Answer by listing the labels in the requested order.
(A) c, a, b

I: C[C@H](NC(=O)c1ccccc1Br)C(=O)O
II: O=C(N[C@@H](Cc1ccc(O)cc1)C(=O)O)c1ccccc1Br
III: O=C(N[C@@H](Cc1c[nH]c2ccc(F)cc12)C(=O)O)c1ccccc1Br
IV: O=C(N[C@H](CO)C(=O)O)c1ccccc1Br
(Q) Rank items: key IC50, increasing. Answer by listing the labels in the requested order.
(A) II, I, III, IV
